System Name: HPK1 kinase (aa1-346, Life Technologies) (Homo sapiens, UniProt Q92918)
Sequence (Q92918 1-346): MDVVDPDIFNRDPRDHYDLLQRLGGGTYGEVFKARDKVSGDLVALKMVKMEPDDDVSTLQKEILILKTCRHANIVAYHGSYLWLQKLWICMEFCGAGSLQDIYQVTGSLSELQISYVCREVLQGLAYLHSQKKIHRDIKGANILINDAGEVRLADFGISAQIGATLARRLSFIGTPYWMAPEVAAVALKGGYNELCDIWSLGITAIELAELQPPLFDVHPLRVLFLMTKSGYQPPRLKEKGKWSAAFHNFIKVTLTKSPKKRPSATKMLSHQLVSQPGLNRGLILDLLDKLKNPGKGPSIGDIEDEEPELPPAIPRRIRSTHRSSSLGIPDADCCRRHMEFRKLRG
Measurement Label: IC50 (nM)

- Compound: "COc1c(COc2nc(-c3cc(C)c4c(c3)CN(C)CC4)cnc2N)ccnc1N"
  System Name: "HPK1 kinase (aa1-346, Life Technologies) (Homo sapiens, UniProt Q92918)"
  IC50 (nM): 16

P = Cc1cc(-c2cnc(N)c(O[C@H](C)c3c(Cl)ccc(C(=O)NC4CC4)c3Cl)n2)cc2c1CCN(C)C2 [Example 47A]
Q = Cc1cc(-c2cnc(N)c(OCc3cc(N)nc(N)c3)n2)cc2c1CCN(C)C2
R = Cc1cc(-c2cnc(N)c(Oc3cnn(C(C)c4cccnc4)c3)n2)cc2c1CCN(C)C2 (stereo not shown)
Input: Hello, I need these entries ordered by IC50, highest reading first. Thanks! // ordering of labels required in reply
Output: P, R, Q

* * *

Observed pIC50 values for HPK1 kinase (aa1-346, Life Technologies) (Homo sapiens, UniProt Q92918) are listed in what follows.
pIC50: −log10 of the molar value.
Measurement Label: pIC50

These recorded examples may help you get a feel for the data.
- Molecule: "Cc1cc(-c2cnc(N)c(-n3cc(C(=O)NCC4CC4)cn3)n2)cc2c1CCN(C)C2 [Example 297]"
  Measured Result: 8.18
- Molecule: "CNc1cc(-c2cnc(N)c(OCc3ccncc3OC)n2)cc2c1CCN(C)C2 [Example 205]"
  Measured Result: 7.92
- Molecule: "Cc1cc(-c2cnc(N)c(OCc3ccncc3Oc3ccccc3)n2)cc2c1CCN(C)C2 [Example 42]"
  Measured Result: 7.03
- Molecule: "Cc1cc(-c2cnc(N)c(OCc3ccnc(N)c3O[C@H]3CCOC3)n2)cc2c1CCN(C)C2 [Example 282]"
  Measured Result: 8.18

1 = Cc1cc(-c2cnc(N)c(-n3cc(C(=O)N(C)C4CCOC4)cn3)n2)cc2c1CCN(C)C2 (centres unmarked) [Example 306]
2 = Cc1cnc(N)cc1COc1nc(-c2cc(C)c3c(c2)CN(C)CC3)cnc1N [Example 32]
3 = Cc1cc(-c2cnc(N)c(Oc3cnn(C(C)C)c3)n2)cc2c1CN(C)CC2 [Example 242]
4 = Cc1cc(-c2cnc(N)c(-n3cc(C(=O)NCCN4CCOCC4)cn3)n2)cc2c1CCN(C)C2 [Example 299]
Input: List by increasing pIC50. Enter labels, ranked according to the request.
Output: 1, 3, 4, 2
(1: 7.05, 3: 7.27, 4: 8.05, 2: 8.29)

* * *

System Name: HPK1 kinase (aa1-346, Life Technologies) (Homo sapiens)
Sequence (Q92918 1-346): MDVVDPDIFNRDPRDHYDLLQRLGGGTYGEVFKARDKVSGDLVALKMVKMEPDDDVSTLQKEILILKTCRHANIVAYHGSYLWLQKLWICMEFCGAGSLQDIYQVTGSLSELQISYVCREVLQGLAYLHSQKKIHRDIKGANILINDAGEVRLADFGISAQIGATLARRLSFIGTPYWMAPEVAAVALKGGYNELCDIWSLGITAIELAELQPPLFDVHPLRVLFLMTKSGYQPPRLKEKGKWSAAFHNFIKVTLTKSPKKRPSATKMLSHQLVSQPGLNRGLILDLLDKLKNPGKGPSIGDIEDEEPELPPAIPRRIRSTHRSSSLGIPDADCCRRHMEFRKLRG
Measurement Label: IC50 (nM)

- Compound: "CCNc1cc(COc2nc(-c3cc(C)c4c(c3)CN(C)CC4)cnc2N)ccn1 [Example 40]"
  Unit Spec: "nM"
  IC50: 29
- Compound: "Cc1cc(-c2cnc(N)c(OCc3ccnc(C#CC4CC4)c3)n2)cc2c1CCN(C)C2 [Example 11]"
  Unit Spec: "nM"
  IC50: 50
- Compound: "Cc1cc(-c2cnc(N)c(OCc3ccnc4[nH]ccc34)n2)cc2c1CCN(C)C2 [Example 34]"
  Unit Spec: "nM"
  IC50: 12

I = Cc1cc(-c2cnc(N)c(Oc3cnn(CC(F)(F)F)c3)n2)cc2c1CCN(C)C2 [Example 303]
II = Cc1cc(-c2cnc(N)c(OCc3ccccc3)n2)cc2c1CCN(C)C2 [Example 18]
Input: Could you point out whether the larger IC50 belongs to I or to II ? Your choice should be expressed through its label.
Output: II

1 = COCCn1cc(Oc2nc(-c3cc(C)c4c(c3)CN(C)CC4)cnc2N)cn1 [Example 276]
2 = CCOCCn1cc(Oc2nc(-c3cc(C)c4c(c3)CN(C)CC4)cnc2N)cn1 [Example 278]
3 = Cc1cc(-c2cnc(N)c(-n3cc4cc(CO)ccc4n3)n2)cc2c1CCN(C)C2 [Example 5]
Input: Order by IC50, ascending. I'd appreciate it if you listed the labels in the requested order.
Output: 2, 1, 3
(2: 15 nM, 1: 24 nM, 3: 172 nM)

1 = Cc1cc(-c2cnc(N)c(OCc3ccncc3)n2)cc2c1CCN(C)C2 [Example 1]
2 = Cc1cc(-c2cnc(N)c(Oc3cnn(C4CCN(C)C4)c3)n2)cc2c1CCN(C)C2 (single isomer, unassigned) [Example 280A]
3 = Cc1cc(-c2cnc(N)c(-n3cc(C(=O)NC4CC4)cn3)n2)cc2c1CCN(C)C2 [Example 298]
Input: In this exercise, place the 3 compounds in ascending sequence of their recorded IC50. A complete answer lists every label in the requested sequence.
Output: 3, 2, 1
(3: 4.2 nM, 2: 12 nM, 1: 29 nM)

Entry source: patent US12673933B2
